Values were extracted from PubChem BioAssay (NCI).

Parameter TGI: see the listing below.
# Tested on: MDA-N
# EXPERIMENT_DESCRIPTION: NCI tumour cell line growth inhibition, 48 h

Field: example entries. Status: answers known.
# COMPOUND, OBSERVED_PROPERTY, RECORDED_VALUE
measured = [
    ("C=CC1=C(C)C2=NC1=CC1=NC(=CC3=C(C)C4=C(O)C(C(=O)OC)C(=C5NC(=C2)C(C)C5CCC(=O)OC)C4=N3)C(CC)=C1C (centres undefined)", "TGI", "> 100 µM"),
    ("Cc1ccc(S(=O)(=O)N2CCNCCN(S(=O)(=O)c3ccc(C)cc3)CCN(S(=O)(=O)c3ccc(C)cc3)CC2)cc1", "TGI", "> 100 µM"),
    ("CC(NC(C#N)CC12CC3CC(CC(C3)C1)C2)c1ccccc1 (centres undefined)", "TGI", "> 100 µM"),
]

Consider Cc1nc(C(N)=S)sc1C(=O)C/C(=N/N)C(=O)Nc1ccc(Cl)cc1 . Its measured TGI is > 100 µM

Consider C[C@]1(O)O[C@@H]2OCC[C@@H]2C2=C1C(=O)c1ccccc1C2=O . Its measured TGI is 19.1 µM

Consider CC(C)(C)c1ccc(C(C)(C)C)c(N2C(=O)C3ON=C(c4ccc([N+](=O)[O-])cc4)C3C2=O)c1 (centres undefined) . Its measured TGI is > 25 µM

Consider CC(=O)NC(Cc1ccc(OP(=O)(OCc2ccc([N+](=O)[O-])o2)N(C)CCCCCl)cc1)C(=O)NC(C)c1ccc(OCC2CCCCC2)c(C(N)=O)c1 (centres undefined) . Its measured TGI is 5.22 µM

Consider CS(=O)(=O)OCCN(CCOS(C)(=O)=O)c1ccc(C=O)cc1 . Its measured TGI is 27.2 µM

Consider COc1ccc2cc(C(=O)NCCCNC(=O)c3ccc4cc(OC)ccc4c3)ccc2c1 . Its measured TGI is > 100 µM

###

# System: HL-60(TB) leukemia
# EXPERIMENT_DESCRIPTION: NCI tumour cell line growth inhibition, 48 h
OBSERVED_PROPERTY: TGI (µM)
Supply the numeric figure in µM, leaving out any unit text.

# COMPOUND, MEASUREMENT_TARGET, OBSERVED_PROPERTY, RECORDED_VALUE
measured = [
    ("CC(=O)N1c2ccccc2C(C)C1c1[nH]c2ccccc2c1C (stereo not given)", "HL-60(TB) leukemia", "TGI", 44.4),
]

Readout TGI for C#CCn1c(=O)c(Cl)cn(/C(=C/C(=O)OCC)C(=O)OCC)c1=O , test system HL-60(TB) leukemia, was 8.21

Readout TGI for COc1ccc2c(c1)/C(=N/OC(C)=O)c1c-2c(=O)[nH]c2ccccc12 , test system HL-60(TB) leukemia, was 4.88

###

# Test system: MALME-3M melanoma
# EXPERIMENT_DESCRIPTION: NCI tumour cell line growth inhibition, 48 h
Would you mind labelling by TGI? At or over 30 µM is y, under is n.

# COMPOUND, LABEL_VALUE
rows = [
    ("CC(C)c1ccc(NC(=S)NC(=O)c2ccccc2)cc1", "y"),
    ("OCc1ccc(N(CCN2CCCC2)Cc2ccc(F)cc2)cc1Cl", "y"),
    ("CC(=O)OC1Oc2ccccc2-c2oc(=O)c(-c3cc4ccccc4oc3=O)cc21 (stereo unspecified)", "y"),
    ("N#C/C(=C\\c1ccc(C(O)P(=O)(O)O)cc1)C(N)=O (stereo unspecified)", "y"),
    ("CC1(O)CCC2(C#N)CCC1C2O (stereo unspecified)", "y"),
    ("CC(=O)OCC1=C(C)C[C@H]([C@@H](COC(C)=O)C2CCC3C4C[C@H]5O[C@]56CC=CC(=O)[C@]6(C)C4CC[C@@]32C)OC1=O (stereo partly specified)", "n"),
    ("O=C(Nc1cccc(-n2cc(-c3ccncc3)c(-c3ccc(O)c(Cl)c3)n2)c1)Nc1cccc(C(F)(F)F)c1", "n"),
    ("O=C(NCc1ccncc1)C1COc2cc(-c3cc(=O)c4ccccc4o3)ccc2O1 (stereo unspecified)", "y"),
    ("CC1(C)CCC(=O)NC1CC(=O)CC1NC(=O)CCC1(C)C (stereo unspecified)", "y"),
    ("CCN(CC)CCCC(C)NC(=O)c1ccc2c(c1)C(=O)c1ccccc1C2=O (stereo unspecified)", "n"),
]

Task: Identify whether the reported TGI of the following compound is 30 µM or greater: S=c1nc(N2CCCCC2)ss1
Output: y

Task: Identify whether the reported TGI of the following compound is 30 µM or greater: c1ccc(C2=NCCc3cc4c(cc32)OCO4)cc1
Output: y

Task: Identify whether the reported TGI of the following compound is 30 µM or greater: Cc1cc(=O)oc2cc(OS(C)(=O)=O)ccc12
Output: y

Task: Identify whether the reported TGI of the following compound is 30 µM or greater: O=C(COc1cccc(/C=C2\CSc3ccccc3C2=O)c1)c1ccc(Cl)cc1
Output: n
